procedure-details: Human HepG2 cell viability assay in 384 well format
Assay type: toxicity, cell-based
Set-up: dose 125 nL, time 70.5 hour; concentration not given beside the values
applied-conditions: HepG2 cells, read-out: Inhibition
# cytotoxicity at 70.5 h listing for each entry below
Output spec: scalar in %, unitless text.

Below, 4 molecules whose answers are already recorded.
Cc1ncsc1C(=O)NCCCN1CCCCCC1=O = -7.13
Cc1cccnc1NC(=O)CNC(=O)c1ccccc1Cl = -14.5
CC(C)C(=O)N1CC[C@H]2N(C)CC[C@@]2(C(=O)N2CCCC2)CC1 = -7.87
Cc1ccc(-n2nc(C)c3c2NC(=O)CC3c2cnc(N)s2)cc1 (configuration not stated) = -0.62

Looking up CCNc1ncc(C(=O)NC(c2ccccc2)c2ccco2)cn1 (configuration not stated) , I see its cytotoxicity at 70.5 h listed as -9.5

Looking up `c1ccc2sc(N3CCCN(c4ncnc5c4CCNC5)CC3)nc2c1` , I see its cytotoxicity at 70.5 h listed as -7.26
